- SYSTEM_TESTED: human PPAR delta (Homo sapiens)
- ASSAY_METHOD_TEXT: PPAR transient transfection (transactivation) assay in CV-1 cells, PPAR delta
- CONDITION_CONTEXT: PPAR LBD-GAL4 chimera, SPAP reporter, 24 h with compound, read-out: human δEC50
Reported EC50 by item:
The answer is to be given in µM; state only the numeric part.

{"SMILES_CODE": "Cc1nc(-c2ccc(C(F)(F)F)cc2)oc1C(=O)NCc1ccc(OC(C)(C)C(=O)O)cc1", "SYSTEM_TESTED": "human PPAR delta (Homo sapiens)", "EC50 (µM)": 1.64}

// query Look up EC50: C#Cc1ccc(-c2nc(C)c(C(=O)NCc3ccc(OC(C)(C)C(=O)O)cc3)s2)cc1
// result 2.48

// query And for COc1cc(CNC(=O)c2sc(-c3ccc(C(F)(F)F)cc3)nc2C)ccc1OC(C)(C)C(=O)O ?
// result 1

// query And for Cc1nc(-c2ccc(OC(F)(F)F)cc2)sc1C(=O)NCc1ccc(OC(C)(C)C(=O)O)cc1 ?
// result 4.59

// query And for Cc1nc(-c2ccc(C(F)(F)F)c(F)c2)sc1C(=O)NCc1ccc(OC(C)(C)C(=O)O)cc1 ?
// result 9.19

// query And for Cc1nc(-c2ccc(C(F)(F)F)cc2)sc1C(=O)NCc1ccc(OC(C)(C)C(=O)O)cc1 ?
// result 2.95

// query And for Cc1nc(-c2ccc(Br)cc2)sc1C(=O)NCc1ccc(OC(C)(C)C(=O)O)cc1 ?
// result 2.7

// query And for Cc1nc(-c2ccc(Cl)cc2)sc1C(=O)NCc1ccc(OC(C)(C)C(=O)O)cc1 ?
// result 5.35

// query And for Cc1nc(-c2ccc(C(C)C)cc2)sc1C(=O)NCc1ccc(OC(C)(C)C(=O)O)cc1 ?
// result 4.37

---

- SYSTEM_TESTED: human PPAR delta (Homo sapiens, UniProt Q03181)
- Construct: expressed in transfected cells; host or cells: CV-1 cells
- Sequence (Q03181 211-439 limits assumed): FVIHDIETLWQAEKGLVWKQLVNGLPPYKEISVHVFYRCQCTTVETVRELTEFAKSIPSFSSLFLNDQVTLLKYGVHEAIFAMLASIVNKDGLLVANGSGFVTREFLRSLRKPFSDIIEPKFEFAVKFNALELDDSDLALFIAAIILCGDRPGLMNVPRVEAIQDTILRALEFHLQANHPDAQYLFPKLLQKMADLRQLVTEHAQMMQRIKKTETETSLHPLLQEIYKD
- ASSAY_METHOD_TEXT: PPAR transient transfection (transactivation) assay in CV-1 cells, PPAR delta
- Format: cell-based
- CONDITION_CONTEXT: PPAR LBD-GAL4 chimera, SPAP reporter, 24 h with compound, read-out: human δEC50
pEC50: −log10 of the molar value.
Reported pEC50 by item:

Sample answers from the record:
{"SMILES_CODE": "CC(C)(Oc1ccc(CNC(=O)c2sc(-c3ccc(C(F)(F)F)cc3)nc2C(F)(F)F)cc1)C(=O)O", "pEC50": "≤ 5.00"}
{"SMILES_CODE": "CCc1ccc(-c2nc(C)c(C(=O)NCc3ccc(OC(C)(C)C(=O)O)cc3)s2)cc1", "pEC50": 5.39}
{"SMILES_CODE": "Cc1nc(-c2ccccc2)sc1C(=O)NCc1ccc(OC(C)(C)C(=O)O)cc1", "pEC50": "≤ 5.00"}

Next item in the queue.
// query Look up pEC50: CCOC(=O)C(C)(C)Oc1ccc(CNC(=O)c2sc(-c3ccc(C(F)(F)F)cc3)nc2C)cc1
// result ≤ 5.00

---

Reported pEC50 by item:
- SYSTEM_TESTED: human PPAR gamma (Homo sapiens, UniProt P37231)
- Sequence (P37231 238-503 limits assumed): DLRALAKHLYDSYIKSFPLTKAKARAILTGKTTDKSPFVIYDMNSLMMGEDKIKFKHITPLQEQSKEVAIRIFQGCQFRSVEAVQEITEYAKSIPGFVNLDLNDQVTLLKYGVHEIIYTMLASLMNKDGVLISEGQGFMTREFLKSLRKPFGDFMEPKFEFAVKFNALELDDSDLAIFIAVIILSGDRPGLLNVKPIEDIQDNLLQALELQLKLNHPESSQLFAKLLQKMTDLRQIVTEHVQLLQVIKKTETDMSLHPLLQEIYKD
- ASSAY_METHOD_TEXT: PPAR transient transfection (transactivation) assay in CV-1 cells, hPPAR gamma
- CONDITION_CONTEXT: PPAR LBD-GAL4 chimera, SPAP reporter, 24 h with compound, read-out: human γEC50
pEC50: −log10 of the molar value.

{"COMPOUND": "CCOC(=O)C(C)(C)Oc1ccc(CNC(=O)c2sc(-c3ccc(C(F)(F)F)cc3)nc2C)cc1 [Example 1]", "pEC50": "≤ 5.00"}

Next item in the queue.
// query Look up pEC50: COc1cc(CNC(=O)c2sc(-c3ccc(C(F)(F)F)cc3)nc2C)ccc1OC(C)(C)C(=O)O [Example 49]
// result ≤ 5.00
